Values from paper PMC12591034

- Test system: A549 (lung) carcinoma cells
- Protocol Description: Cytotoxicity, SRB assay, A549
- Assay type: cell-based
- Measurement Parameters: Homo sapiens, A549, read-out: IC50 Cytotoxicity A549
pIC50: −log10 of the molar value.
Below, each of the molecules is paired with its reported pIC50 value.
Endpoint Name: pIC50

- Molecule: "C[C@H]1C(=O)CC[C@@H]2[C@]1(C)CC[C@H]1[C@@]2(C)CC[C@@]2(C)[C@@H]3CC(C)(C)CC[C@]3(C)CC[C@]12C"
  Tested Target: "A549 (lung) carcinoma cells"
  Value Comparator: "<"
  Reported Value: 4.00
- Molecule: "C[C@H]1C(=O)CC[C@@H]2[C@]1(C)CC[C@H]1[C@@]2(C)CC[C@@]2(C)[C@@H]3CC(C)(C)CC[C@]3(CO)CC[C@]12C"
  Tested Target: "A549 (lung) carcinoma cells"
  Value Comparator: "="
  Reported Value: 4.41
- Molecule: "COC(=O)c1c(C)cc(O)c(C=O)c1O [Compound 17, methyl haematommate]"
  Tested Target: "A549 (lung) carcinoma cells"
  Value Comparator: "<"
  Reported Value: 4.00
- Molecule: "Cc1c2ccncc2c(C)c2c1[nH]c1ccccc12 [Ellipticine, reference compound]"
  Tested Target: "A549 (lung) carcinoma cells"
  Value Comparator: "="
  Reported Value: 5.77

---

- Tested on: Hep-G2 (liver) carcinoma cells
- Protocol Description: Cytotoxicity, SRB assay, Hep-G2
- Type: cell-based
- Measurement Parameters: Homo sapiens, HepG2, read-out: IC50 Cytotoxicity Hep-G2
pIC50: −log10 of the molar value.

- Compound: "C[C@H]1C(=O)CC[C@@H]2[C@]1(C)CC[C@H]1[C@@]2(C)CC[C@@]2(C)[C@@H]3CC(C)(C)CC[C@]3(C)CC[C@]12C"
  Value Comparator: "<"
  pIC50: 4.00
- Compound: "C[C@H]1C(=O)CC[C@@H]2[C@]1(C)CC[C@H]1[C@@]2(C)CC[C@@]2(C)[C@@H]3CC(C)(C)CC[C@]3(CO)CC[C@]12C"
  Value Comparator: "="
  pIC50: 4.65
- Compound: "Cc1c2ccncc2c(C)c2c1[nH]c1ccccc12 [Ellipticine, reference compound]"
  Value Comparator: "="
  pIC50: 5.85
- Compound: "COC(=O)c1c(C)cc(O)c(C=O)c1O [Compound 17, methyl haematommate]"
  Value Comparator: "="
  pIC50: 4.09

---

- Protocol Description: Cytotoxicity, SRB assay, HEK-293A
- Type: cell-based
- Measurement Parameters: human, HEK-293A embryonic kidney cells (normal cells)
pIC50: −log10 of the molar value.

- Compound: "Cc1c2ccncc2c(C)c2c1[nH]c1ccccc12 [Ellipticine, reference compound]"
  pIC50: 5.87
- Compound: "COC(=O)c1c(C)cc(O)c(C=O)c1O [Compound 17, methyl haematommate]"
  pIC50: 4.15
- Compound: "C[C@H]1C(=O)CC[C@@H]2[C@]1(C)CC[C@H]1[C@@]2(C)CC[C@@]2(C)[C@@H]3CC(C)(C)CC[C@]3(CO)CC[C@]12C"
  pIC50: 4.52
